B1: glmS ribozyme (parent)
chain: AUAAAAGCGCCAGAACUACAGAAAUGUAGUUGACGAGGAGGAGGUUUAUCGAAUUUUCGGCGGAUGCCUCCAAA

Variants of: B1
Experiment: self-cleavage kobs at 10000 uM GlcN6P; higher = faster cleavage; RNA array
Conditions: with glucosamine-6-phosphate
Variants at the floor of the assay were thinned out.
VALUE_TYPE: self-cleavage kobs at 10000 uM GlcN6P

>>> experimental_result("C8A A36U")
"< 1e-05 s⁻¹"
>>> experimental_result("G7U G35U")
"< 1e-05 s⁻¹"
>>> experimental_result("U55G C61A C71G")
"< 1e-05 s⁻¹"
>>> experimental_result("C10U G40A C67A")
"< 1e-05 s⁻¹"
>>> experimental_result("G38A C68A")
"< 1e-05 s⁻¹"
>>> experimental_result("G32U A36C C68A")
"< 1e-05 s⁻¹"
>>> experimental_result("C34A C71A")
"< 1e-05 s⁻¹"
>>> experimental_result("A12G G29A G41C")
"< 1e-05 s⁻¹"

The variant C10G G51A showed self-cleavage kobs at 10000 uM GlcN6P equal to < 1e-05 s⁻¹

The variant C58U C61U C71U showed self-cleavage kobs at 10000 uM GlcN6P equal to < 1e-05 s⁻¹

The variant A42U C68U showed self-cleavage kobs at 10000 uM GlcN6P equal to 0.000302 s⁻¹

The variant A14G A15G U47C U55A C70G showed self-cleavage kobs at 10000 uM GlcN6P equal to 0.000483 s⁻¹

The variant U46G showed self-cleavage kobs at 10000 uM GlcN6P equal to 0.00965 s⁻¹

The variant U45G C58A showed self-cleavage kobs at 10000 uM GlcN6P equal to 0.00022 s⁻¹

The variant C11A A12C G38U U69A showed self-cleavage kobs at 10000 uM GlcN6P equal to 4.3e-05 s⁻¹

The variant U30C G44A showed self-cleavage kobs at 10000 uM GlcN6P equal to < 1e-05 s⁻¹

The variant C50U A52C showed self-cleavage kobs at 10000 uM GlcN6P equal to < 1e-05 s⁻¹

The variant G43U showed self-cleavage kobs at 10000 uM GlcN6P equal to 4.31e-05 s⁻¹
